- Tested on: SYO-1 tumor spheroids, viability % test/control
- Assay Info: Anticancer human tumor SYO-1 cell line growth inhibition;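 note: spheroids exposed to agents for 7 days before viability read; 100% = DMSO vehicle control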
- Measurement Setup: second compound 0.0003 µM; first compound 3 µM; hits give low values; spheroids with HUVEC and MSC
Reported values of viability, T/C for individual entries
Property Measured: viability, T/C

Molecule	Assayed System	Property Measured	Result
CNCc1ccc(-c2cc(-c3nc(-c4ccc(S(=O)(=O)C(C)C)cc4)cnc3N)on2)cc1 + COc1cc2c(cc1O)CCNC21CSC2c3c(OC(C)=O)c(C)c4c(c3C(COC1=O)N1C(O)C3Cc5cc(C)c(OC)c(O)c5C(C21)N3C)OCO4	SYO-1 tumor spheroids, viability % test/control	viability, T/C	0.09%
O=C(c1cc(Cc2n[nH]c(=O)c3ccccc23)ccc1F)N1CCN(C(=O)C2CC2)CC1 + COc1cc2c(cc1O)CCNC21CSC2c3c(OC(C)=O)c(C)c4c(c3C(COC1=O)N1C(O)C3Cc5cc(C)c(OC)c(O)c5C(C21)N3C)OCO4	SYO-1 tumor spheroids, viability % test/control	viability, T/C	1.83%
Cc1sc2c(c1C)C(c1ccc(Cl)cc1)=NC(CC(=O)Nc1ccc(O)cc1)c1nnc(C)n1-2 (centres undefined) + COc1cc2c(cc1O)CCNC21CSC2c3c(OC(C)=O)c(C)c4c(c3C(COC1=O)N1C(O)C3Cc5cc(C)c(OC)c(O)c5C(C21)N3C)OCO4	SYO-1 tumor spheroids, viability % test/control	viability, T/C	6.38%
Cn1ncnc1[C@H]1c2n[nH]c(=O)c3cc(F)cc(c23)N[C@@H]1c1ccc(F)cc1 + COc1cc2c(cc1O)CCNC21CSC2c3c(OC(C)=O)c(C)c4c(c3C(COC1=O)N1C(O)C3Cc5cc(C)c(OC)c(O)c5C(C21)N3C)OCO4	SYO-1 tumor spheroids, viability % test/control	viability, T/C	0.93%
